- System: SNB-19 CNS
- assay_protocol: NCI-60 one-dose screen, 48 h (100 = growth as untreated, 0 = no growth, -100 = all killed)
- condition_label: 10 µM unless noted
This is part of a sample that, as a whole, favours compounds with a hit. Of some 83,000 tested, about 20% had one in any assay.
// thresholds for growth classes: bottom (below 60%), middle (60% to below 90%), top (90% or more)

Hello team, could you let me know which band the following compound falls into: Cc1cc(Oc2ccccc2)ccc1Nc1ncnc2ccc(-c3cnc(Cl)c(NS(C)(=O)=O)c3)cc12
bottom

Hello team, could you let me know which band the following compound falls into: NC1=Nc2cc(OCCCN3Cc4ccccc4C3)c(OCC3CC3)cc2C12CCCC2
middle

Hello team, could you let me know which band the following compound falls into: Cc1ccc(N)cc1CN1C(=O)c2ccccc2C1=O
top

Hello team, could you let me know which band the following compound falls into: Cc1c(Cn2c(C)nc3c(C(=O)O)cc(N4CCOCC4)cc32)cccc1C(F)(F)F
top

Hello team, could you let me know which band the following compound falls into: CNC(=O)c1cc(Oc2ccc(NC(=O)Nc3cc(C(C)(C)C)nn3-c3ccc4ncccc4c3)c(F)c2)ccn1
bottom

Hello team, could you let me know which band the following compound falls into: CNC(=O)c1cnc(C)nc1-c1cc(C(C)(C)C)c(O)c(C(C)(C)C)c1
middle

---

- Test system: SF-268 CNS
- assay_protocol: NCI-60 one-dose screen, 48 h (100 = growth as untreated, 0 = no growth, -100 = all killed)
- condition_label: 10 µM unless noted
This is part of a sample that, as a whole, favours compounds with a hit. Of some 83,000 tested, about 20% had one in any assay.
Label 1 for high-side growth (at or above 30%) and 0 for low-side growth (below it).

Threshold query (growth >= 30%) on C=C1C(=O)O[C@H]2[C@H]1CC/C(C=Nc1c(N)cc(C(F)(F)F)cc1C(F)(F)F)=C\CC[C@@]1(C)O[C@@H]21
0

Threshold query (growth >= 30%) on CO[C@H](C(=O)N[C@@H](CCCCNC(=O)OCc1ccccc1)C(=O)OC(C)(C)C)[C@@H]1Cc2cc3cc(OC4CC(OC5CC(O)C(O)C(C)O5)C(O)C(C)O4)c(C)c(O)c3c(O)c2C(=O)[C@H]1OC1CC(OC2CC(OC3CC(C)(O)C(O)C(C)O3)C(O)C(C)O2)C(O)C(C)O1 (some centres not stated)
0

Threshold query (growth >= 30%) on CN1C/C=C\CCOc2cccc(c2)-c2ccnc(n2)Nc2cccc(c2)C1
0

Threshold query (growth >= 30%) on COc1ccc2c(CCCC(c3ccccc3)c3ccccc3)c3[n+](cc2c1OC)CCc1cc2c(cc1-3)OCO2
0

Threshold query (growth >= 30%) on CN1CC[C@@H](c2c(O)cc(O)c3c(=O)cc(-c4ccccc4Cl)oc23)[C@@H]1CO
0

Threshold query (growth >= 30%) on N#CCNC(=O)c1ccc(-c2ccnc(Nc3ccc(N4CCOCC4)cc3)n2)cc1
0

Threshold query (growth >= 30%) on CC(C)=CCc1cc2c(cc1O)C1=C(C(=O)C3=C(NCCS3(=O)=O)C1=O)C(C=C(C)C)O2 (configuration not stated)
0

Threshold query (growth >= 30%) on COc1ccc(-c2cc3c(C)nc(N)nc3n(C3CCC(OCCO)CC3)c2=O)cn1 (configuration not stated)
0

Threshold query (growth >= 30%) on Cc1cc(Nc2ncnc3ccc(NC4=NC(C)(C)CO4)cc23)ccc1Oc1ccn2ncnc2c1
1

Threshold query (growth >= 30%) on O=S1(=O)OC(c2cc(Cl)c(O)c(Br)c2)(c2cc(Cl)c(O)c(Br)c2)c2ccccc21
1

Threshold query (growth >= 30%) on C[C@@H](Oc1cc(C(=O)Nc2ccc(C(=O)N3CCN(C)CC3)cc2)nnc1N)c1c(Cl)ccc(F)c1Cl
1

Threshold query (growth >= 30%) on CC1(C=O)NC(=O)NC1=O (configuration not stated)
1

Threshold query (growth >= 30%) on Nc1c(Cl)cccc1[N+](=O)[O-]
1

Threshold query (growth >= 30%) on COc1ccc(C(=O)c2cc(OC)c(OC)c(OC)c2)cc1/C=C/C(=O)c1ccc(F)cc1
1

Threshold query (growth >= 30%) on CC(=O)OC1Oc2ccccc2-c2oc(=O)c(-c3cc4ccc(N(C)C)cc4oc3=O)cc21 (configuration not stated)
1

Threshold query (growth >= 30%) on NC1(C(=O)N[C@@H](CCO)c2ccc(Cl)cc2)CCN(c2ncnc3[nH]ccc23)CC1
1

Threshold query (growth >= 30%) on COc1cc2c3c(c1)nc(C)n3CCC2
1

Threshold query (growth >= 30%) on CC#CC(=O)N1CCC[C@H]1c1nc(-c2ccc(C(=O)Nc3ccccn3)cc2)c2c(N)nccn12
1

Threshold query (growth >= 30%) on O=C(c1c(F)ccc(NS(=O)(=O)N2CC[C@@H](F)C2)c1F)c1c[nH]c2ncc(-c3cnc(C4CC4)nc3)cc12
1

Threshold query (growth >= 30%) on CCCCCc1ccc(C)cc1OC(=O)CCl
1

Threshold query (growth >= 30%) on Cc1ccc(NC(=O)NC(=O)CSc2nc3ccccc3nc2C)cc1
1

Threshold query (growth >= 30%) on Cc1nc(N)sc1-c1ccnc(Nc2ccc(N3CCOCC3)cc2)n1
0

Threshold query (growth >= 30%) on COc1cc(OC)c(C(=O)/C=C/c2cc3c(cc2OCc2ccccc2)OC(C)(C)CC3)cc1CC=C(C)C
1

Threshold query (growth >= 30%) on c1ccc2c(c1)CCN(NCCN1CCCC1)C2
1

Threshold query (growth >= 30%) on COc1cc(N2CCC(N(C)C)CC2)ccc1Nc1ncc(Cl)c(Nc2ccccc2P(C)(C)=O)n1
0

Threshold query (growth >= 30%) on CN(C)CCn1c(=O)c2c3cc4c(cc3n(CCN(C)C)c2c2ccc(Cl)cc21)OCO4
1

Threshold query (growth >= 30%) on COc1cc2c(Oc3ccc4[nH]c(C)cc4c3F)ncnc2cc1OCCCN1CCCC1
1

Threshold query (growth >= 30%) on COc1ccc(C2OC(c3cc(-c4cc5ccccc5o4)nn3-c3ccccc3)=NN2C(C)=O)cc1 (configuration not stated)
1

Threshold query (growth >= 30%) on Cc1c(NC(=O)OC[C@@H]2COCCN2)cn2ncnc(Nc3ccc4c(cnn4Cc4cccc(F)c4)c3)c12
0

Threshold query (growth >= 30%) on Cc1cc(N2CCCC2)nc(N(CCCNc2ccnc3cc(Cl)ccc23)Cc2ccc3c(c2)OCO3)n1
1

Threshold query (growth >= 30%) on COC(=O)Nc1nc2ccc(C(=O)c3ccc(N(C)C4COC4)cc3)cc2[nH]1
1

Threshold query (growth >= 30%) on COc1ccc2c(CCc3ccc(Cl)cc3)c3[n+](cc2c1OC)CCc1cc2c(cc1-3)OCO2
1
